Molecular target: Neuronal acetylcholine receptor; alpha2/beta4 (Rattus norvegicus, UniProt P12389+P12392)
Sequence (P12389 whole entry): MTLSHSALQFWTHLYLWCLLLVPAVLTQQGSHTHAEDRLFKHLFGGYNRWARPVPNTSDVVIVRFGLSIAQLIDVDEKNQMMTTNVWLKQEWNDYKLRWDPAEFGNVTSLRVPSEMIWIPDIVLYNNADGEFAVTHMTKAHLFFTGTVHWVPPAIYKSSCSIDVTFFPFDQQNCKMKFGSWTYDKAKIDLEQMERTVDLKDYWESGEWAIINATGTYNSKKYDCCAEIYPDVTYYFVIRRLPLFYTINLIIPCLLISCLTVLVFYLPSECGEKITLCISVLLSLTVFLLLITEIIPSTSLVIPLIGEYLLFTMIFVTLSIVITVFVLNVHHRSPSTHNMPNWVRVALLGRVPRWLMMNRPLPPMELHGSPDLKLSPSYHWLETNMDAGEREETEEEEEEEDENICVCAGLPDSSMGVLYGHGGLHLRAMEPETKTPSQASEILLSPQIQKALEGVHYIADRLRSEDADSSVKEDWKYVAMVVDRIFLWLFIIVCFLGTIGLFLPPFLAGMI
Sequence (P12392 whole entry): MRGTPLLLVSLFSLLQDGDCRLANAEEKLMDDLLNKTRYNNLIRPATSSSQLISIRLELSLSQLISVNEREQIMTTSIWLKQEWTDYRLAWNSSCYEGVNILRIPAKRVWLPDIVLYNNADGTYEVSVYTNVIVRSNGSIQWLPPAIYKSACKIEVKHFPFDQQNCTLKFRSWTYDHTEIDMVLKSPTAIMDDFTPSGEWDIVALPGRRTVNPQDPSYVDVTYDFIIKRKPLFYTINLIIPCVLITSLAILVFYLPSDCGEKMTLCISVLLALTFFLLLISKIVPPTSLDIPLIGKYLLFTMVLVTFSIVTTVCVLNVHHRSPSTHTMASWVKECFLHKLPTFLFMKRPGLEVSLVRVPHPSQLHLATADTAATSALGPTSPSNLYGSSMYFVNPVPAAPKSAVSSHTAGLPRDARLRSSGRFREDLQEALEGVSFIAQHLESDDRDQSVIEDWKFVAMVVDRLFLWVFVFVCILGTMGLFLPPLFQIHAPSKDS
Assay: Binding affinity for rat Nicotinic acetylcholine receptor alpha2-beta4
pKi: −log10 of the molar value.
recordedMetric: pKi

>  <compound>
CN1CCCC1c1ccc(CCc2ccccc2)nc1 (stereo unspecified)

>  <recordedMetric>
pKi

>  <reportedResult>
5.92

$$$$

====

Biological target: Neuronal acetylcholine receptor; alpha4/beta2 (Rattus norvegicus, UniProt P09483+P12390)
Sequence (P09483 whole entry): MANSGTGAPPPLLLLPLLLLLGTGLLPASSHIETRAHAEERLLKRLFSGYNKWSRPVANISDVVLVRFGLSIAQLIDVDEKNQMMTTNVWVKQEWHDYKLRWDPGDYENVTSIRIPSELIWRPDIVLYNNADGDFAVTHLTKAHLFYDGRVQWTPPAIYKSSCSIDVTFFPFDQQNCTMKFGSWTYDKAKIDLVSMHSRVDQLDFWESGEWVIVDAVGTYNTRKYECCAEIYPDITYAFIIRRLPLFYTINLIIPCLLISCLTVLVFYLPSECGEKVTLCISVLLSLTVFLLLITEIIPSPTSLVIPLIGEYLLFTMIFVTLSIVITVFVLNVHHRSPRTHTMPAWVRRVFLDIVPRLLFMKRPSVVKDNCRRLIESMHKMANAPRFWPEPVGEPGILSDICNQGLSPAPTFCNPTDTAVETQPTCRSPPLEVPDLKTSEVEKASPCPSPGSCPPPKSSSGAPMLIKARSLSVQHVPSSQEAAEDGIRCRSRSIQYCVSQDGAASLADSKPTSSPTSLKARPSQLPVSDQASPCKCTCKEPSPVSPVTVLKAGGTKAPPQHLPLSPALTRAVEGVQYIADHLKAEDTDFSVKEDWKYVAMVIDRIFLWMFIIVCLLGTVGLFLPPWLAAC
Sequence (P12390 whole entry): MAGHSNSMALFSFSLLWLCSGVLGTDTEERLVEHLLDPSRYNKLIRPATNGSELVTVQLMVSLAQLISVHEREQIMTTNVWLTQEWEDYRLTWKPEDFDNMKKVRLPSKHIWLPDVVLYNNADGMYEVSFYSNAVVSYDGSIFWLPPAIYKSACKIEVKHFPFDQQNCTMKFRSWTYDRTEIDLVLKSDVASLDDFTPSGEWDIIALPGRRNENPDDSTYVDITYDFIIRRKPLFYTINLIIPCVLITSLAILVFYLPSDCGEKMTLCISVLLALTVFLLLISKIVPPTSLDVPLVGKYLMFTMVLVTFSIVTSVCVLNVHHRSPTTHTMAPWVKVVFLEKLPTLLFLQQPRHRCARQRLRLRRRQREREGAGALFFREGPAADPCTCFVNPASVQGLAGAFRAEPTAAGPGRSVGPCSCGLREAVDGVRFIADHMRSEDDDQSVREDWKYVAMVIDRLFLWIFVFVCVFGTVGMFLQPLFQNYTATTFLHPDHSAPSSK
Assay: Inhibition of [3H](-)-nicotine binding to rat brain (minus cerebellum) Nicotinic acetylcholine receptor alpha4-beta2
Assay type: tissue-based
pKi: −log10 of the molar value.
Listed here are compounds together with their documented pKi.
recordedMetric: pKi

>  <compound>
CCc1ccc(C2CCCN2C)cn1 (configuration not stated)

>  <assaySystem>
Neuronal acetylcholine receptor; alpha4/beta2 (Rattus norvegicus, UniProt P09483+P12390)

>  <sign>
=

>  <reportedResult>
8.25

$$$$
>  <compound>
CN1CCCC1c1ccc(CCc2ccccc2)nc1 (configuration not stated)

>  <assaySystem>
Neuronal acetylcholine receptor; alpha4/beta2 (Rattus norvegicus, UniProt P09483+P12390)

>  <sign>
=

>  <reportedResult>
7.82

$$$$
>  <compound>
CN1CCCC1c1ccc(CC(O)c2ccccc2)nc1 (configuration not stated)

>  <assaySystem>
Neuronal acetylcholine receptor; alpha4/beta2 (Rattus norvegicus, UniProt P09483+P12390)

>  <sign>
=

>  <reportedResult>
6.56

$$$$
>  <compound>
CN1CCCC1c1ccc(/C=C/c2ccccc2)nc1 (configuration not stated)

>  <assaySystem>
Neuronal acetylcholine receptor; alpha4/beta2 (Rattus norvegicus, UniProt P09483+P12390)

>  <sign>
=

>  <reportedResult>
6.46

$$$$
>  <compound>
CCN(C)CCc1ccc(CCc2ccccc2)nc1

>  <assaySystem>
Neuronal acetylcholine receptor; alpha4/beta2 (Rattus norvegicus, UniProt P09483+P12390)

>  <sign>
<

>  <reportedResult>
5.00

$$$$
>  <compound>
CN1CCCC1c1ccc(C(=O)O)nc1 (configuration not stated)

>  <assaySystem>
Neuronal acetylcholine receptor; alpha4/beta2 (Rattus norvegicus, UniProt P09483+P12390)

>  <sign>
<

>  <reportedResult>
5.00

$$$$
>  <compound>
CN1CCCC1c1ccc(CCCc2ccccc2)nc1 (single isomer, unassigned; (+))

>  <assaySystem>
Neuronal acetylcholine receptor; alpha4/beta2 (Rattus norvegicus, UniProt P09483+P12390)

>  <sign>
<

>  <reportedResult>
5.00

$$$$

====

Biological target: Neuronal acetylcholine receptor; alpha3/beta4 (Rattus norvegicus, UniProt P04757+P12392)
Sequence (P04757 whole entry): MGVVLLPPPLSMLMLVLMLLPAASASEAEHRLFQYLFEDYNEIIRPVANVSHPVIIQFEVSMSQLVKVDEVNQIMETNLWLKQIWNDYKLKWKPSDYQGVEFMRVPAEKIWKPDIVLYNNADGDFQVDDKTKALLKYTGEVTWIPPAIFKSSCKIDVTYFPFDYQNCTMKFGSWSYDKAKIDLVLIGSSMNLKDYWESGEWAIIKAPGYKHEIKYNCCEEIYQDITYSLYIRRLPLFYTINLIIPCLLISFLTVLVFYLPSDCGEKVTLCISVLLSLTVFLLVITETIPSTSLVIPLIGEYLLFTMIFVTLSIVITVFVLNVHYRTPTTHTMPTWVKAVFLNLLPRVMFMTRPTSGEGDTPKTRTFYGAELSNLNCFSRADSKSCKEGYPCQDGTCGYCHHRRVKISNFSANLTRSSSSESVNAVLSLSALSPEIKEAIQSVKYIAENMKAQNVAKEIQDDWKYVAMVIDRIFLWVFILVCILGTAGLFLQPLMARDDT
Sequence (P12392 whole entry): as the sequence (P12392 whole entry) above
Assay: Binding affinity for rat Nicotinic acetylcholine receptor alpha3-beta4

>  <compound>
CN1CCCC1c1ccc(CCc2ccccc2)nc1 (stereo unspecified)

>  <Ki>
4.6 µM

$$$$

====

Target: Neuronal acetylcholine receptor; alpha3/beta2 (Rattus norvegicus, UniProt P04757+P12390)
Sequence (P04757 whole entry, one chain of several): as the sequence (P04757 whole entry) above
Test: Binding affinity for rat Nicotinic acetylcholine receptor alpha3-beta2
recordedMetric: Ki (µM)

>  <molecule>
CN1CCCC1c1ccc(CCc2ccccc2)nc1 (stereo unspecified)

>  <assaySystem>
Neuronal acetylcholine receptor; alpha3/beta2 (Rattus norvegicus, UniProt P04757+P12390)

>  <reportedResult>
2

$$$$

====

Target: Neuronal acetylcholine receptor; alpha2/beta2 (Rattus norvegicus, UniProt P12389+P12390)
Sequence (P12389 whole entry, one chain of several): as the sequence (P12389 whole entry) above
Assay: Binding affinity for rat Nicotinic acetylcholine receptor alpha2-beta2
pKi: −log10 of the molar value.
recordedMetric: pKi

>  <compound>
CN1CCCC1c1ccc(CCc2ccccc2)nc1 (stereo unspecified)

>  <reportedResult>
6.31

$$$$

====

Listed here are molecules together with their documented Ki.
Molecular target: Neuronal acetylcholine receptor; alpha4/beta2 (Rattus norvegicus, UniProt P09483+P12390)
Experiment: Inhibition of [3H](-)-nicotine binding to rat brain (minus cerebellum) Nicotinic acetylcholine receptor alpha4-beta2
Assay type: tissue-based

>  <molecule>
CCCc1ccc(C2CCCN2C)cn1 (centres undefined)

>  <Ki [nM]>
17

$$$$
>  <molecule>
CN1CCCC1c1ccc(CCCc2ccccc2)nc1 (single isomer, unassigned; (-))

>  <Ki [nM]>
72

$$$$
>  <molecule>
CN1CCCC1c1ccc(CCc2ccc(Cl)cc2)nc1 (centres undefined)

>  <Ki [nM]>
40

$$$$
>  <molecule>
COc1ccc(CCc2ccc(C3CCCN3C)cn2)cc1 (centres undefined)

>  <Ki [nM]>
10

$$$$
